molecular target: human PAH with the R408W mutation (A375 R408W cells) (Homo sapiens, UniProt P00439, R408W); construct: expressed in transfected cells; assay: Cell Based Phenylalanine Flux Assay; conditions: A375 R408W cells; 24 hrs with compound, then 20 μM sepiapterin and 800 μM 13C9,15N-Phenylalanine for 4 hours; 13C-Tyrosine by LC-MS; average where tested multiple times
Sequence (P00439 whole entry R408W): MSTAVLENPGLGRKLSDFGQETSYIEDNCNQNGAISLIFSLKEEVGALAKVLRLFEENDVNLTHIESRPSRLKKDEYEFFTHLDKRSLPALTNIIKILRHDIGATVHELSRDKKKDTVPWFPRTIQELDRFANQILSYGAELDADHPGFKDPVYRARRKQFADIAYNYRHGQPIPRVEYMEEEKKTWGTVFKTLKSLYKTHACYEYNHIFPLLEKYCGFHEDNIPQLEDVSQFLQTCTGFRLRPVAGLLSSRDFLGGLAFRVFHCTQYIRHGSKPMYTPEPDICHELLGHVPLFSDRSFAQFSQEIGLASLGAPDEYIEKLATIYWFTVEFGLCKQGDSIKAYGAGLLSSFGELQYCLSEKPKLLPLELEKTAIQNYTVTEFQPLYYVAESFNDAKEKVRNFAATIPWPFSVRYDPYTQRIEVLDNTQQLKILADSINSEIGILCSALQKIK
Assign AC50 to each entry below.

Please look up its AC50: CC(C)(O)c1nc(Br)c(C(=O)N2CCc3[nH]cnc3[C@@H]2c2nc3cccc(F)c3o2)o1
0.5 to 1 µM

Please look up its AC50: Cc1ccc(F)c2oc([C@@H]3c4nc[nH]c4CCN3C(=O)c3ocnc3C(F)F)nc12
≤ 0.5 µM

Please look up its AC50: O=C(c1ccnn1C(F)F)N1CCc2[nH]cnc2[C@@H]1c1nc2ccc(F)cc2o1
1 to 5 µM

Please look up its AC50: Cn1cc(-c2nnc(C(=O)N3CCc4[nH]cnc4[C@@H]3c3nc4cc(F)ccc4o3)o2)cn1
1 to 5 µM

Please look up its AC50: Cn1nc(Br)nc1C(=O)N1CCc2[nH]cnc2[C@H]1c1nc2cccc(F)c2o1
0.5 to 1 µM

Please look up its AC50: Cc1ccc2nc([C@H]3c4nc[nH]c4CCN3C(=O)c3nnc(-c4ccn(C(F)F)n4)o3)oc2c1
1 to 5 µM

Please look up its AC50: O=C(c1ocnc1C(F)F)N1CCc2[nH]cnc2[C@H]1c1nc2cccc(Cl)c2o1
≤ 0.5 µM

Please look up its AC50: O=C(c1cnc(-c2ccccn2)o1)N1CCc2[nH]cnc2[C@@H]1c1nc2ccc(Br)cc2o1
1 to 5 µM

Please look up its AC50: O=C(c1ccnn1C(F)F)N1CCc2[nH]cnc2[C@H]1c1nc2ccccc2o1
≤ 0.5 µM

Please look up its AC50: Cc1cccc2oc([C@@H]3c4nc[nH]c4CCN3C(=O)c3nnc(-c4cnn(C)c4)o3)nc12
≤ 0.5 µM

Please look up its AC50: O=C(c1cnn2cc(-c3ccccn3)ccc12)N1CCc2[nH]cnc2[C@@H]1c1nc2cccc(F)c2o1
1 to 5 µM

Please look up its AC50: COc1cccc2oc([C@@H]3c4nc[nH]c4CCN3C(=O)c3cnco3)nc12
0.5 to 1 µM

Please look up its AC50: O=C(c1ccnn1CC(F)F)N1CCc2[nH]cnc2[C@@H]1c1nc2cccc(F)c2o1
0.5 to 1 µM

Please look up its AC50: Cc1nc(C(=O)N2CCc3[nH]cnc3[C@@H]2c2nc3cccc(F)c3o2)n(C)n1
1 to 5 µM

Please look up its AC50: O=C(c1ocnc1C(F)F)N1CCc2[nH]cnc2[C@H]1c1nc2cc(Br)cc(F)c2o1
≤ 0.5 µM

Please look up its AC50: O=C(c1ocnc1C(F)F)N1CCc2[nH]cnc2[C@@H]1c1nc2cccc(Br)c2o1
≤ 0.5 µM

Please look up its AC50: CC(C)(O)c1nc(C(F)F)c(C(=O)N2CCc3[nH]cnc3[C@@H]2c2nc3c(F)cccc3o2)o1
1 to 5 µM

Please look up its AC50: O=C(c1cnn2cc(N3CCOCC3)c(Cl)cc12)N1CCc2[nH]cnc2[C@H]1c1nc2cc(F)ccc2o1
0.5 to 1 µM

Please look up its AC50: O=C(c1nnc(C2CC2)o1)N1CCc2[nH]cnc2[C@@H]1c1nc2c(F)ccc(F)c2o1
0.5 to 1 µM

Please look up its AC50: O=C(c1ccnn1CC(F)F)N1CCc2[nH]cnc2[C@@H]1c1nc2c(F)cccc2o1
≤ 0.5 µM

Please look up its AC50: O=C(CCc1cncs1)N1CCc2[nH]cnc2[C@H]1c1nc2cccc(F)c2o1
0.5 to 1 µM

Please look up its AC50: CN1CCN(c2cn3ncc(C(=O)N4CCc5[nH]cnc5[C@H]4c4nc5cc(F)ccc5o4)c3cc2Cl)CC1
≤ 0.5 µM

Please look up its AC50: O=C(N1CCc2[nH]cnc2[C@H]1c1nc2cc(F)ccc2o1)C1(c2cnco2)CC1
1 to 5 µM

Please look up its AC50: O=C(c1oc(C2CC2)nc1C(F)F)N1CCc2[nH]cnc2[C@@H]1c1nc2cc(F)ccc2o1
0.5 to 1 µM

Please look up its AC50: O=C(c1oc(N2CCOCC2)nc1C(F)F)N1CCc2[nH]cnc2[C@@H]1c1nc2cccc(F)c2o1
0.5 to 1 µM

Please look up its AC50: [2H]C([2H])([2H])OCc1nc(C(F)F)c(C(=O)N2CCc3[nH]cnc3[C@@H]2c2nc3cc(F)ccc3o2)o1
1 to 5 µM

Please look up its AC50: Cc1nc([C@@H](C)O)oc1C(=O)N1CCc2[nH]cnc2[C@H]1c1nc2cccc(F)c2o1
≤ 0.5 µM

// data source = patent US20250171437A1
